Recorded values, source patent US20240158446A1.

Molecular target: GDP-bound KRAS wild-type protein (Homo sapiens, UniProt P01116)
Sequence (P01116 whole entry): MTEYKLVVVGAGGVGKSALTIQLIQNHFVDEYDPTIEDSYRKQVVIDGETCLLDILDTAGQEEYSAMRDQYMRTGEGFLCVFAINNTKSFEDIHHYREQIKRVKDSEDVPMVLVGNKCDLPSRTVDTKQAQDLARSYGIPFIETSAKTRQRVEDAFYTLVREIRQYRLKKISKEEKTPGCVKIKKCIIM
Assay: Binding to KRAS by surface plasmon resonance (SPR), Single Cycle Kinetics
Details: SPR, Single Cycle Kinetics, GDP-bound KRAS wild-type protein; read-out: KRAS KD
quantity_measured: pKd
In textbook form, pKd equals minus log to base ten of the concentration in mol/L.

input_smiles	pKd
CCO[C@@H]1C[C@H]2C(=O)NC3(CC(C)(C)C3)C(=O)N(C)[C@@H](C(CC)CC)C(=O)N(C)[C@H](C(=O)N(C)C)CC(=O)N(C)[C@@H](CC3CCC3)C(=O)N[C@@H]([C@@H](C)CC)C(=O)N(C)CC(=O)N(C)[C@H]3C/C=C\CCN(C3=O)[C@@H](Cc3ccc(C(F)(F)F)cc3)C(=O)N(C)CC(=O)N[C@@H](CCc3ccc(C(F)(F)F)c(Cl)c3)C(=O)N2C1	9.36

Consider the record given below.
So the reported pKd for CC[C@H](C)[C@@H]1NC(=O)[C@H](C(C)C)N(C)C(=O)C[C@@H](C(=O)N(C)C)N(C)C(=O)[C@H](C2CCCC2)N(C)C(=O)C2(CC(C)(C)C2)NC(=O)[C@@H]2C[C@H](C)CN2C(=O)[C@H](CCc2ccc(C(F)(F)F)c(OC)c2)NC(=O)CN(C)C(=O)[C@H](Cc2ccc(C(F)(F)F)cc2)N2CC/C=C\C[C@@H](C2=O)N(C)C(=O)CN(C)C1=O , on GDP-bound KRAS wild-type protein (Homo sapiens, UniProt P01116), turned out to be 9.89

* * *

Molecular target: UniProt P01116
Test: Binding to KRAS by surface plasmon resonance (SPR), Single Cycle Kinetics
Settings: SPR Single Cycle Kinetics, GDP-bound KRAS wild-type protein, 1:1 binding model; read-out: KRAS KD
Where a SMILES comes first, the peptide text is derived from it. Bridges are numbered along the chain shown (N, C = ends). [ ]: non-standard residue; d: D form. hPhe(3-Cl-4-CF3) = N[C@@H](CCc1ccc(C(F)(F)F)c(Cl)c1)C(=O)O; NPrPhe(4-CF3) = CCCN[C@@H](Cc1ccc(C(F)(F)F)cc1)C(=O)O; NMeGly(cPent) = CN[C@H](C(=O)O)C1CCCC1; Hyp = O=C(O)[C@@H]1C[C@@H](O)CN1; NMeL = CN[C@@H](CC(C)C)C(=O)O; NMeA = CN[C@@H](C)C(=O)O; Ac5c = NC1(C(=O)O)CCCC1; Aze = O=C(O)[C@@H]1CCN1; Ac4c = NC1(C(=O)O)CCC1; Sar = CNCC(=O)O
The molecules listed here are annotated with their pKd.
To interpret pKd, take it as minus log10 of a concentration measured in moles per litre.

molecule	pKd
CCOC[C@H]1C(=O)N[C@@H]([C@@H](C)CC)C(=O)N(C2CC2)CC(=O)N(C)[C@H]2C/C=C\CCN(C2=O)[C@@H](Cc2ccc(C)cc2)C(=O)N(C)CC(=O)N[C@@H](CCc2ccc(Cl)c(Cl)c2)C(=O)N2C[C@H](OCC)C[C@H]2C(=O)NC2(CC(C)(C)C2)C(=O)N(C)[C@@H](CC2CCC2)C(=O)N(C)[C@H](C(=O)N(C)C)CC(=O)N1C	8.54
CC[C@H](C)[C@@H]1NC(=O)[C@H](COC)N(C)C(=O)C[C@@H](C(=O)N(C)C)N(C)C(=O)[C@H](C2CCCCC2)N(C)C(=O)C2(CC(C)(C)C2)NC(=O)[C@@H]2C[C@@H](OC3CCCC3)CN2C(=O)[C@H](CCc2cc(F)c(C(F)(F)F)c(F)c2)NC(=O)CN(C)C(=O)[C@H](Cc2ccc(C(F)(F)F)cc2)N2CC/C=C\C[C@@H](C2=O)N(C)C(=O)CN(C)C1=O	9.51
CCC(CC)[C@H]1C(=O)N(C)[C@H](C(=O)N(C)C)CC(=O)N(C)[C@@H](COC)C(=O)N[C@@H]([C@@H](C)CC)C(=O)N(C)CC(=O)N(C)[C@H]2C/C=C\CCN(C2=O)[C@@H](Cc2ccc(C(F)(F)F)cc2)C(=O)N(C)CC(=O)N[C@@H](CCc2cc(F)c(C(F)(F)F)c(F)c2)C(=O)N2CC3(CC3)C[C@H]2C(=O)NC2(CC(C)(C)C2)C(=O)N1C	9.44
CCCN1C(=O)[C@@H]2CCN2C(=O)[C@H](C)N(C)C(=O)[C@H]([C@@H](C)CC)NC(=O)[C@H](CC(C)C)N(C)C(=O)C[C@@H](C(=O)N(C)C)NC(=O)[C@H](C2CCCC2)N(C)C(=O)C2(CCCC2)NC(=O)[C@@H]2C[C@@H](OCC)CN2C(=O)[C@H](CCc2ccc(C(F)(F)F)c(Cl)c2)NC(=O)CN(C)C(=O)[C@@H]1Cc1ccc(C(F)(F)F)cc1 [PP0383] ([NMeL]I[NMeA][Aze][NPrPhe(4-CF3)][Sar][hPhe(3-Cl-4-CF3)][Hyp](Et)[Ac5c][NMeGly(cPent)]D-NMe2; lactam N-11)	9.62

Item: CCCN1C(=O)[C@@H]2CCN2C(=O)CN(C)C(=O)[C@H]([C@@H](C)CC)NC(=O)[C@H](CC(C)C)N(C)C(=O)C[C@@H](C(=O)N(C)C)NC(=O)[C@H](C2CCCC2)N(C)C(=O)C2(CCC2)NC(=O)[C@@H]2C[C@@H](OCC)CN2C(=O)[C@H](CCc2ccc(C(F)(F)F)c(Cl)c2)NC(=O)CN(C)C(=O)[C@@H]1Cc1ccc(C(F)(F)F)cc1 [PP0390] ([NMeL]I[Sar][Aze][NPrPhe(4-CF3)][Sar][hPhe(3-Cl-4-CF3)][Hyp](Et)[Ac4c][NMeGly(cPent)]D-NMe2; lactam N-11) | pKd: 9.70

* * *

System: human lung cancer strain NCI-H441;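 also: cell proliferation inhibition after four days measured by CellTiter-Glo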
quantity_measured: log10(IC50) (log10 of the value in nM)
Kindly note that the scale is log10 and the underlying IC50 is in nM.

compound	log10(IC50)
CC[C@H](C)[C@@H]1NC(=O)[C@H](CC(C)C)N(C)C(=O)C[C@@H](C(=O)N2CCOCC2)NC(=O)[C@H](C2CCCC2)N(C)C(=O)C2(CCCC2)NC(=O)[C@@H]2CCCN2C(=O)[C@H](CCc2cc(F)c(C(F)(F)F)c(F)c2)NC(=O)CN(C)C(=O)[C@H](Cc2ccc(C(F)(F)F)cc2)N2CCCC[C@@H](C2=O)N(C)C(=O)CN(C)C1=O	1.92
CCCOC[C@H]1C(=O)N[C@@H]([C@@H](C)OCC)C(=O)N2CCC[C@H]2C(=O)N(C)[C@H]2C/C=C\CCN(C2=O)[C@@H](Cc2ccc(C)cc2)C(=O)N(C)CC(=O)N[C@@H](CCc2cc(F)c(C(F)(F)F)c(F)c2)C(=O)N2C[C@H](OCC)C[C@H]2C(=O)NC2(CC(C)(C)C2)C(=O)N(C)[C@@H](C2CCCC2)C(=O)N(C)[C@H](C(=O)N(C)CC)CC(=O)N1C	2.14
CCO[C@@H]1C[C@H]2C(=O)NC3(CCC3)C(=O)N(C)[C@@H](C3CCCC3)C(=O)N(C)[C@H](C(=O)N(C)C)CC(=O)N(C)[C@@H](Cc3ccccc3C#N)C(=O)N[C@@H]([C@@H](C)CC)C(=O)N(C)CC(=O)N(C)[C@H]3CCCCCN(C3=O)[C@@H](Cc3ccc(C(F)(F)F)cc3)C(=O)N(C)CC(=O)N[C@@H](CCc3cc(F)c(C(F)(F)F)c(F)c3)C(=O)N2C1	2.07
CC[C@H](C)[C@@H]1NC(=O)[C@H](COC)N(C)C(=O)C[C@@H](C(=O)N(C)C)N(C)C(=O)[C@H](C2CCCC2)N(C)C(=O)C2(CC(C)(C)C2)NC(=O)[C@@H]2C[C@@H](OC3CCC3)CN2C(=O)[C@H](CCc2ccc(Cl)c(Cl)c2)NC(=O)CN(C)C(=O)[C@H](CC2CCC(F)(F)CC2)N2CC/C=C\C[C@@H](C2=O)N(C)C(=O)CN(C2CC2)C1=O	2.24
CCC[C@H]1C(=O)N[C@@H](CC(C)C)C(=O)N(CCOC)CC(=O)N(C)[C@H]2C/C=C\CCN(C2=O)[C@@H](Cc2ccc(C)cc2)C(=O)N(C)CC(=O)N[C@@H](CCc2cc(F)c(C(F)(F)F)c(F)c2)C(=O)N2C[C@H](OCC)C[C@H]2C(=O)NC2(CCC2)C(=O)N(C)[C@@H](C2CCCC2)C(=O)N(C)[C@H](C(=O)N(C)C)CC(=O)N1C	2.57

Tested on human lung cancer strain NCI-H441: CCC[C@H]1C(=O)N[C@@H]([C@@H](C)CC)C(=O)N(C)CC(=O)N(C)[C@H]2C/C=C\CCN(C2=O)[C@@H](Cc2ccc(C(F)(F)F)cc2)C(=O)N(C)CC(=O)N[C@@H](CCc2ccc(Cl)c(Cl)c2)C(=O)N2C[C@H](OCC)C[C@H]2C(=O)NC2(CCC2)C(=O)N(C)[C@@H](C(CC)CC)C(=O)N(C)[C@H](C(=O)N(C)C)CC(=O)N1C . Observed log10(IC50): 1.30

Measured on human lung cancer strain NCI-H441, CCO[C@H](C)[C@@H]1NC(=O)[C@H](CC(C)C)N(C)C(=O)C[C@@H](C(=O)N(C)CC)N(C)C(=O)[C@H](C2CCCC2)N(C)C(=O)C2(CC(C)(C)C2)NC(=O)[C@@H]2C[C@H](C)CN2C(=O)[C@H](CCc2cc(F)c(C(F)(F)F)c(F)c2)NC(=O)CN(C)C(=O)[C@H](Cc2ccc(C)cc2)N2CC/C=C\C[C@@H](C2=O)N(C)C(=O)CN(C)C1=O has a documented log10(IC50) of 0.99

Measured log10(IC50) (human lung cancer strain NCI-H441), entry CCOC[C@H]1C(=O)N[C@@H]([C@@H](C)CC)C(=O)N(C)CC(=O)N(C)[C@H]2C/C=C\CCN(C2=O)[C@@H](Cc2ccc(C(F)(F)F)cc2)C(=O)N(C)CC(=O)N[C@@H](CCc2ccc(C(F)(F)F)c(OC)c2)C(=O)N2C[C@H](OCC)C[C@H]2C(=O)NC2(CC(C)(C)C2)C(=O)N(C)[C@@H](CC(C)(C)C)C(=O)N(C)[C@H](C(=O)N(C)C)CC(=O)N1C : 0.88
